Test system: Candida albicans
Experiment: Antifungal activity against Candida albicans MTCC 227 after 30 hrs by serial dilution method
Format: functional
Conditions: MTCC 227, 30 h
Exercise: state measured MIC for each of the compounds provided.
The reply should be a number in mg/L, with the unit left off.

Tell me MIC of "Cc1ccc2nc(C(F)(F)F)cc(OCCCCN3C(=O)c4ccccc4C3=O)c2c1" when tested on Candida albicans. 6.25

Would you please give the reported MIC of "CN1CCN(CCCCn2c(C(F)(F)F)cc(=O)c3cc(F)ccc32)CC1" with Candida albicans? 12.5

Provide Candida albicans MIC reading for "O=C1c2ccccc2C(=O)N1CCCCn1c(C(F)(F)F)cc(=O)c2ccccc21" . 6.25

Give MIC only, for "O=C1c2ccccc2C(=O)N1CCCCOc1cc(C(F)(F)F)nc2ccccc12" , using Candida albicans data. 6.25

Enter recorded MIC with Candida albicans for "O=C1c2ccccc2C(=O)N1CCCCn1c(C(F)(F)F)cc(=O)c2cc(F)ccc21" here. 6.25

Give measured MIC for "O=c1cc(C(F)(F)F)n(C/C=C/CN2CCOCC2)c2ccc(F)cc12" (Candida albicans). 6.25

Lab note: Candida albicans assay, enter MIC for "O=c1cc(C(F)(F)F)n(C/C=C/CN2CCCCC2)c2ccc(F)cc12" here 12.5

Report value only: MIC, Candida albicans, "O=c1cc(C(F)(F)F)n(CCCCN2CCCCC2)c2ccc(F)cc12" 6.25

Give measured MIC for "O=C1c2ccccc2C(=O)N1CCCCOc1cc(C(F)(F)F)nc2ccc(F)cc12" (Candida albicans). 6.25

Write down the reported MIC (system: Candida albicans) of "COc1ccc2c(c1)c(=O)cc(C(F)(F)F)n2CCCCN1C(=O)c2ccccc2C1=O" 6.25

Enter recorded MIC with Candida albicans for "Cc1ccc2c(c1)c(=O)cc(C(F)(F)F)n2CCCCN1C(=O)c2ccccc2C1=O" here. 6.25
